Data provenance is the supplement of paper PMC10567573.

B1: NP_002788.1 (parent)
chain: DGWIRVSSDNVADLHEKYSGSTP

variants of: B1; assay: protein stability index of a GFP-peptide fusion (GPS, HEK-293T) (PSI 1-6); higher = more stable; conditions: c terminus: native;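 note: lentivirally expressed fusion library, cells FACS-sorted into six equal-sized GFP/DsRed ratio bins, PSI computed from sequencing read fractions per bin weighted by bin number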
Classification field: enter fulfilled for protein stability index values not below 3, not fulfilled for values below it.

input: Determine whether measured protein stability index meets or exceeds 3 for `D13K`
output: not fulfilled

input: Determine whether measured protein stability index meets or exceeds 3 for `K17I`
output: fulfilled

input: Determine whether measured protein stability index meets or exceeds 3 for `G20P`
output: fulfilled

input: Determine whether measured protein stability index meets or exceeds 3 for `W3E`
output: fulfilled

input: Determine whether measured protein stability index meets or exceeds 3 for `D13G`
output: not fulfilled

input: Determine whether measured protein stability index meets or exceeds 3 for `V6G`
output: fulfilled

input: Determine whether measured protein stability index meets or exceeds 3 for `Y18Q`
output: fulfilled

input: Determine whether measured protein stability index meets or exceeds 3 for `S21T`
output: not fulfilled

input: Determine whether measured protein stability index meets or exceeds 3 for `W3A`
output: fulfilled

input: Determine whether measured protein stability index meets or exceeds 3 for `S7T`
output: not fulfilled

input: Determine whether measured protein stability index meets or exceeds 3 for `R5N`
output: not fulfilled

input: Determine whether measured protein stability index meets or exceeds 3 for `E16K`
output: fulfilled

input: Determine whether measured protein stability index meets or exceeds 3 for `G20V`
output: fulfilled

input: Determine whether measured protein stability index meets or exceeds 3 for `N10K`
output: not fulfilled

input: Determine whether measured protein stability index meets or exceeds 3 for `A12L`
output: not fulfilled

input: Determine whether measured protein stability index meets or exceeds 3 for `E16L`
output: not fulfilled

input: Determine whether measured protein stability index meets or exceeds 3 for `G2F`
output: not fulfilled

input: Determine whether measured protein stability index meets or exceeds 3 for `S21F`
output: not fulfilled

input: Determine whether measured protein stability index meets or exceeds 3 for `K17S`
output: fulfilled

input: Determine whether measured protein stability index meets or exceeds 3 for `T22Y`
output: not fulfilled

input: Determine whether measured protein stability index meets or exceeds 3 for `W3M`
output: fulfilled
